- Tested on: ASPC-1 tumor-bearing mice
- protocolSummary: Biodistribution of radionuclide labeled complexes in ASPC-1 tumor-bearing mice
- Type: in vivo, BALB/c nude mice
- testConditions: Pancreas, 1 h
assayMetric: % ID/g (1 h) Pancreas (% ID/g)
# output: bare number, implied unit % ID/g

# input # % ID/g (1 h) Pancreas lookup, item COc1cccc(OC)c1-c1cc(C(=O)NC2(C(=O)O)C3CC4CC(C3)CC2C4)nn1-c1ccc(C(=O)N(CCCNC(=O)CN2CCN(CC(=O)[O-])CCN(CC(=O)[O-])CCN(CC(=O)[O-])CC2)CCCN(C)C)cc1C(C)C.[177Lu+3] (stereo not shown) [^177Lu-C-5, reference compound]
# output 0.26

# input # % ID/g (1 h) Pancreas lookup, item COc1cccc(OC)c1-c1cc(C(=O)NC2(C(=O)O)C3CC4CC(C3)CC2C4)nn1-c1ccc(N(CCCN(C)C)C(=O)COCCOCCNC(=O)CN2CCN(CC(=O)[O-])CCN(CC(=O)[O-])CCN(CC(=O)[O-])CC2)cc1C(C)C.[177Lu+3] (stereo not shown) [^177Lu-I-6]
# output 0.11

# input # % ID/g (1 h) Pancreas lookup, item COc1cccc(OC)c1-c1cc(C(=O)NC2(C(=O)O)C3CC4CC(C3)CC2C4)nn1-c1ccc(C(=O)N(C)CCCN(C)CCCN(C)C(=O)CN2CCN(CC(=O)[O-])CCN(CC(=O)[O-])CCN(CC(=O)[O-])CC2)cc1C(C)C.[177Lu+3] (stereo not shown) [^177Lu-C-2, reference compound]
# output 0.8

# input # % ID/g (1 h) Pancreas lookup, item COc1cccc(OC)c1-c1cc(C(=O)NC2(C(=O)O)C3CC4CC(C3)CC2C4)nn1-c1ccc(OCCCN(C)CCCN(C)C(=O)CN2CCN(CC(=O)[O-])CCN(CC(=O)[O-])CCN(CC(=O)[O-])CC2)cc1C(C)C.[177Lu+3] (stereo not shown) [^177Lu-I-7]
# output 0.67

---

- Test system: ASPC-1 tumor-bearing mice
- protocolSummary: Biodistribution of radionuclide labeled complexes in ASPC-1 tumor-bearing mice
- Type: in vivo, BALB/c nude mice
- testConditions: Heart, 4 h
assayMetric: % ID/g (4 h) Heart (% ID/g)
# output: bare number, implied unit % ID/g

# input # % ID/g (4 h) Heart lookup, item COc1cccc(OC)c1-c1cc(C(=O)NC2(C(=O)O)C3CC4CC(C3)CC2C4)nn1-c1ccc(C(=O)N(CCCNC(=O)CN2CCN(CC(=O)[O-])CCN(CC(=O)[O-])CCN(CC(=O)[O-])CC2)CCCN(C)C)cc1C(C)C.[177Lu+3] (centres unmarked) [^177Lu-C-5, reference compound]
# output 0.16

# input # % ID/g (4 h) Heart lookup, item COc1cccc(OC)c1-c1cc(C(=O)NC2(C(=O)O)C3CC4CC(C3)CC2C4)nn1-c1ccc(N(CCCN(C)C)C(=O)COCCOCCNC(=O)CN2CCN(CC(=O)[O-])CCN(CC(=O)[O-])CCN(CC(=O)[O-])CC2)cc1C(C)C.[177Lu+3] (centres unmarked) [^177Lu-I-6]
# output 0.12

---

For each of the compounds below, state its % ID/g (1 h) Muscle.
- Test system: ASPC-1 tumor-bearing mice
- protocolSummary: Biodistribution of radionuclide labeled complexes in ASPC-1 tumor-bearing mice
- Format: in vivo, BALB/c nude mice
- testConditions: Muscle, 1 h
# output: bare number, implied unit % ID/g

# input # % ID/g (1 h) Muscle lookup, item COc1cccc(OC)c1-c1cc(C(=O)NC2(C(=O)O)C3CC4CC(C3)CC2C4)nn1-c1ccc(C(=O)N(CCCNC(=O)CN2CCN(CC(=O)[O-])CCN(CC(=O)[O-])CCN(CC(=O)[O-])CC2)CCCN(C)C)cc1C(C)C.[177Lu+3] (stereo not shown) [^177Lu-C-5, reference compound]
# output 0.31

# input # % ID/g (1 h) Muscle lookup, item COc1cccc(OC)c1-c1cc(C(=O)NC2(C(=O)O)C3CC4CC(C3)CC2C4)nn1-c1ccc(N(CCCN(C)C)C(=O)COCCOCCNC(=O)CN2CCN(CC(=O)[O-])CCN(CC(=O)[O-])CCN(CC(=O)[O-])CC2)cc1C(C)C.[177Lu+3] (stereo not shown) [^177Lu-I-6]
# output 0.06

# input # % ID/g (1 h) Muscle lookup, item COc1cccc(OC)c1-c1cc(C(=O)NC2(C(=O)O)C3CC4CC(C3)CC2C4)nn1-c1ccc(C(=O)N(C)CCCN(C)CCCN(C)C(=O)CN2CCN(CC(=O)[O-])CCN(CC(=O)[O-])CCN(CC(=O)[O-])CC2)cc1C(C)C.[177Lu+3] (stereo not shown) [^177Lu-C-2, reference compound]
# output 0.93

# input # % ID/g (1 h) Muscle lookup, item COc1cccc(OC)c1-c1cc(C(=O)NC2(C(=O)O)C3CC4CC(C3)CC2C4)nn1-c1ccc(OCCCN(C)CCCN(C)C(=O)CN2CCN(CC(=O)[O-])CCN(CC(=O)[O-])CCN(CC(=O)[O-])CC2)cc1C(C)C.[177Lu+3] (stereo not shown) [^177Lu-I-7]
# output 1.1

---

- System: ASPC-1 tumor-bearing mice
- protocolSummary: Biodistribution of radionuclide labeled complexes in ASPC-1 tumor-bearing mice
- Format: in vivo, BALB/c nude mice
- testConditions: Pancreas, 72 h
Label rule, in plain words: % ID/g (72 h) Pancreas of 0.07 % ID/g and up is class 1, under 0.07 % ID/g is class 0.

# input Hello, I need to know if COc1cccc(OC)c1-c1cc(C(=O)NC2(C(=O)O)C3CC4CC(C3)CC2C4)nn1-c1ccc(OCCCN(C)CCCN(C)C(=O)CN2CCN(CC(=O)[O-])CCN(CC(=O)[O-])CCN(CC(=O)[O-])CC2)cc1C(C)C.[177Lu+3] (stereo not drawn) [^177Lu-I-7] has measured % ID/g (72 h) Pancreas not below 0.07 % ID/g. Thanks!
# output class 0

# input Hello, I need to know if COc1cccc(OC)c1-c1cc(C(=O)NC2(C(=O)O)C3CC4CC(C3)CC2C4)nn1-c1ccc(NCCCN(C)CCCNC(=O)CN2CCN(CC(=O)[O-])CCN(CC(=O)[O-])CCN(CC(=O)[O-])CC2)cc1C(C)C.[177Lu+3] (stereo not drawn) [^177Lu-I-2] has measured % ID/g (72 h) Pancreas not below 0.07 % ID/g. Thanks!
# output class 1

# input Hello, I need to know if COc1cccc(OC)c1-c1cc(C(=O)NC2(C(=O)O)C3CC4CC(C3)CC2C4)nn1-c1ccc(NC(=O)CCCN(C)CCCN(C)C(=O)CN2CCN(CC(=O)[O-])CCN(CC(=O)[O-])CCN(CC(=O)[O-])CC2)cc1C(C)C.[177Lu+3] (stereo not drawn) [^177Lu-I-5] has measured % ID/g (72 h) Pancreas not below 0.07 % ID/g. Thanks!
# output class 1

# input Hello, I need to know if COc1cccc(OC)c1-c1cc(C(=O)NC2(C(=O)O)C3CC4CC(C3)CC2C4)nn1-c1ccc(NCCOCCOCCNC(=O)CN2CCN(CC(=O)[O-])CCN(CC(=O)[O-])CCN(CC(=O)[O-])CC2)cc1C(C)C.[177Lu+3] (stereo not drawn) [^177Lu-I-10] has measured % ID/g (72 h) Pancreas not below 0.07 % ID/g. Thanks!
# output class 0

---

For each of the molecules below, state its % ID/g (24 h) Heart.
- System: ASPC-1 tumor-bearing mice
- protocolSummary: Biodistribution of radionuclide labeled complexes in ASPC-1 tumor-bearing mice
- Type: in vivo, BALB/c nude mice
- testConditions: Heart, 24 h
# output: bare number, implied unit % ID/g

# input Short answer please: % ID/g (24 h) Heart, ASPC-1 tumor-bearing mice, entry COc1cccc(OC)c1-c1cc(C(=O)NC2(C(=O)O)C3CC4CC(C3)CC2C4)nn1-c1ccc(NCCCN(C)CCCNC(=O)CN2CCN(CC(=O)[O-])CCN(CC(=O)[O-])CCN(CC(=O)[O-])CC2)cc1C(C)C.[177Lu+3] (centres unmarked) [^177Lu-I-2]
# output 0.4

# input Short answer please: % ID/g (24 h) Heart, ASPC-1 tumor-bearing mice, entry COc1cccc(OC)c1-c1cc(C(=O)NC2(C(=O)O)C3CC4CC(C3)CC2C4)nn1-c1ccc(OCCCN(C)CCCN(C)C(=O)CN2CCN(CC(=O)[O-])CCN(CC(=O)[O-])CCN(CC(=O)[O-])CC2)cc1C(C)C.[177Lu+3] (centres unmarked) [^177Lu-I-7]
# output 0.29

---

- System: ASPC-1 tumor-bearing mice
- protocolSummary: Biodistribution of radionuclide labeled complexes in ASPC-1 tumor-bearing mice
- Format: in vivo, BALB/c nude mice
- testConditions: Liver, 24 h
assayMetric: % ID/g (24 h) Liver (% ID/g)
# output: bare number, implied unit % ID/g

# input # % ID/g (24 h) Liver lookup, item COc1cccc(OC)c1-c1cc(C(=O)NC2(C(=O)O)C3CC4CC(C3)CC2C4)nn1-c1ccc(OCCCN(C)CCCN(C)C(=O)CN2CCN(CC(=O)[O-])CCN(CC(=O)[O-])CCN(CC(=O)[O-])CC2)cc1C(C)C.[177Lu+3] (centres unmarked) [^177Lu-I-7]
# output 0.84

# input # % ID/g (24 h) Liver lookup, item COc1cccc(OC)c1-c1cc(C(=O)NC2(C(=O)O)C3CC4CC(C3)CC2C4)nn1-c1ccc(NCCOCCOCCNC(=O)CN2CCN(CC(=O)[O-])CCN(CC(=O)[O-])CCN(CC(=O)[O-])CC2)cc1C(C)C.[177Lu+3] (centres unmarked) [^177Lu-I-10]
# output 0.14
